assay: Cassette pharmacokinetic study, intravenous or oral administration; type: in vivo, female Balb/c nude mice; settings: female, Balb/c nude, mouse, whole blood; PO 2 mg/kg, N = 3, cassette; read-out: Terminal t1/2 (converted)
measured.property: half-life (min)
Just the number please, in min, no unit attached.

chemical.smiles	assay.result
CCS(=O)(=O)Nc1ccc(Oc2ccc(F)cc2F)c(-c2cn(C)c(=O)c3[nH]ccc23)c1	274
CCS(=O)(=O)Nc1cc2c(cc1Cl)C(c1ccc(F)cc1)=NCc1cc(=O)n(C)cc1-2	230
CCS(=O)(=O)Cc1ccc2c(c1)-c1cn(C)c(=O)cc1[C@H](C)N=C2c1ccc(F)cc1	261
CCS(=O)(=O)Nc1ccc2c(c1)-c1cn(C)c(=O)cc1CN=C2c1ccc(F)cc1	131

Please find the next compound below.
Item: "CCS(=O)(=O)Cc1ccc2c(c1)-c1cn(C)c(=O)cc1CN=C2c1ccc(F)cc1" | half-life: 253

* * *

Reported MLM_T1/2 by item:
experiment: Metabolic stability in mouse liver microsomes; assay type: in vitro ADME; details: mouse liver microsomes 0.5 mg/mL, NADPH, 37° C.
Just the number please, in min, no unit attached.

Here is how some compounds turned out for MLM_T1/2.
compound	value.units	assay.result
CCS(=O)(=O)Nc1ccc(Oc2ccc(F)cc2F)c(-c2cn(C)c(=O)c3[nH]ccc23)c1 [ABBV-075]	min	81.11
CNS(=O)(=O)Cc1ccc2c(c1)-c1cn(C)c(=O)cc1[C@H](C)N=C2c1ccc(F)cc1 [Compound 4072]	min	372.45
Cn1cc2c(cc1=O)[C@H](CC(N)=O)N=C(c1ccc(Cl)cc1)c1ccccc1-2 [Compound 4017]	min	215.28

Please find the next compound below.
Item: C[C@@H]1N=C(c2ccc(F)cc2)c2ccc(CS(=O)(=O)N(C)C)cc2-c2cn(C)c(=O)cc21 [Compound 4073] | MLM_T1/2: 156.12

* * *

experiment: Cassette pharmacokinetic study, intravenous or oral administration; assay type: in vivo, female Balb/c nude mice; details: female, Balb/c nude, mouse, whole blood; IV 0.5 mg/kg, N = 3, cassette
Reported AUC(0-t) by item:
Just the number please, in ng·h/mL, no unit attached.

chemical.smiles	AUC(0-t), ng·h/mL
CCS(=O)(=O)Cc1ccc2c(c1)-c1cn(C)c(=O)cc1CN=C2c1ccc(F)cc1	575

Please find the next molecule below.
Item: "CCS(=O)(=O)Nc1cc2c(cc1Cl)C(c1ccc(F)cc1)=NCc1cc(=O)n(C)cc1-2" | AUC(0-t): 729

* * *

Reported log10 of IC50 by item:
test system: MV-4-11 cells; assay: Inhibitory effect on MV-4-11 cells (CellTiter-Glo); type: cell-based; conditions: Homo sapiens, MV4-11; 72 hours, CellTiter-Glo; read-out: MV-4-11
Please keep in mind that the values are log10 of IC50 expressed in nM.

Here is how some molecules turned out for log10 of IC50.
molecule	assay.result
Cn1cc2c(c1C(N)=O)CCN(c1ccc(F)cc1)c1ccc(CS(C)(=O)=O)cc1-2	3.05
CCS(=O)(=O)Cc1ccc2c(c1)-c1cn(C)c(=O)cc1N(C)N=C2c1ccc(F)cc1	1.15
CCS(=O)(=O)Cc1ccc2c(c1)-c1cn(C)c(=O)cc1[C@H](C)N=C2c1ccc(F)c(OC)c1	0.95

Item: "CNS(=O)(=O)C(C)(C)c1ccc2c(c1)-c1cn(C)c(=O)cc1[C@H](C)N=C2c1ccc(F)cc1" | log10 of IC50: 0.48
